B1: SOAT1 (parent)
chain: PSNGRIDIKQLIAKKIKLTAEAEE

- Variants of: B1
- Experiment: protein stability index of a GFP-peptide fusion (GPS, HEK-293T) (PSI 1-6); higher = more stable;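 further: lentivirally expressed fusions sorted by FACS into six bins by GFP to DsRed ratio, PSI derived from sequencing read proportions per bin multiplied by bin number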
- Measurement conditions: c terminus: a fixed tail appended
Readout: protein stability index
Just the number, please.

Please review the entries below; each comes with its answer.
{"Variant spec": "P1K", "protein stability index": 3.04}
{"Variant spec": "P1V", "protein stability index": 2.98}

Next:
**Q:** Name the recorded protein stability index for E21P .
**A:** 2.92

Each recorded value in this set is attributed to the supplement of paper PMC10567573.
